test: recombinant UMI read abundance after kanamycin selection (control-corrected) (log10(CPM+1)); higher = more efficient recombination; extreme values may be limits of the assay; sequences stand for … in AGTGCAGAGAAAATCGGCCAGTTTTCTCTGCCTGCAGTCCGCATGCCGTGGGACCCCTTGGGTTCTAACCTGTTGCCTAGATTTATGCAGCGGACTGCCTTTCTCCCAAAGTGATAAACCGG…AGGTTGGTTTCACT; site = the 11-nt donor;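 further: IS621 bridge recombinase in Escherichia coli cells against a fixed T5 target plasmid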
# recombinant UMI read abundance (log10) per record follows

[
  {
    "seq_text": "CGATCCACATGGACCGGTTTTCCCGGTAATCCGTATTTGTT (site CGATCCACTAA)",
    "recombinant UMI read abundance (log10)": 2.11
  },
  {
    "seq_text": "CCCCGCACATGGACCGGTTTTCCCGGTAATCCGTATTTGTA (site CCCCACACTTA)",
    "recombinant UMI read abundance (log10)": 0.48
  },
  {
    "seq_text": "GGCTATCCATGGACCGGTTTTCCCGGTAATCCGTATTTGAA (site GGCCATCCTTT)",
    "recombinant UMI read abundance (log10)": 0.0272
  },
  {
    "seq_text": "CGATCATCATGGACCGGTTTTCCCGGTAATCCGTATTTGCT (site GAATCATCTAG)",
    "recombinant UMI read abundance (log10)": 0
  },
  {
    "seq_text": "GTGCACGCATGGACCGGTTTTCCCGGTAATCCGTATTTGGT (site GTGCACGCTAC)",
    "recombinant UMI read abundance (log10)": 1.75
  },
  {
    "seq_text": "GGAGGACCATGGACCGGTTTTCCCGGTAATCCGTATTTGGG (site TGAGGACCTCC)",
    "recombinant UMI read abundance (log10)": 0.00615
  },
  {
    "seq_text": "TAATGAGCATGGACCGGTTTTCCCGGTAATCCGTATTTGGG (site TAACGAGCTCC)",
    "recombinant UMI read abundance (log10)": 0.0128
  },
  {
    "seq_text": "AAGTCCGCATGGACCGGTTTTCCCGGTAATCCGTATTTGAT (site AAGTCCGCTAT)",
    "recombinant UMI read abundance (log10)": 1.53
  },
  {
    "seq_text": "AGCCTTGCATGGACCGGTTTTCCCGGTAATCCGTATTTGAC (site AGCCTTGCTGT)",
    "recombinant UMI read abundance (log10)": 1.36
  },
  {
    "seq_text": "GGCCACGCATGGACCGGTTTTCCCGGTAATCCGTATTTGTT (site GGCCACACTAA)",
    "recombinant UMI read abundance (log10)": 0.148
  },
  {
    "seq_text": "CTGAATCCATGGACCGGTTTTCCCGGTAATCCGTATTTGTT (site CAGAATCCTAA)",
    "recombinant UMI read abundance (log10)": 0.0107
  },
  {
    "seq_text": "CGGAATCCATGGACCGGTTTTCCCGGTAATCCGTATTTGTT (site CGGAATGCTCA)",
    "recombinant UMI read abundance (log10)": 0
  },
  {
    "seq_text": "GAATGCTCATGGACCGGTTTTCCCGGTAATCCGTATTTGAA (site AAATGCTCTTT)",
    "recombinant UMI read abundance (log10)": 0.536
  },
  {
    "seq_text": "AGGAAGACATGGACCGGTTTTCCCGGTAATCCGTATTTGTG (site AGGAAGACTCA)",
    "recombinant UMI read abundance (log10)": 2.35
  },
  {
    "seq_text": "AGCACAGCATGGACCGGTTTTCCCGGTAATCCGTATTTGGG (site AGCTCAGCTCC)",
    "recombinant UMI read abundance (log10)": 0
  },
  {
    "seq_text": "TTGTATACATGGACCGGTTTTCCCGGTAATCCGTATTTGGG (site TTGTATACTCC)",
    "recombinant UMI read abundance (log10)": 0.00305
  },
  {
    "seq_text": "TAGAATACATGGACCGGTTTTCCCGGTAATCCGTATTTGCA (site TAGAATACTTT)",
    "recombinant UMI read abundance (log10)": 0
  },
  {
    "seq_text": "AGCTCATCATGGACCGGTTTTCCCGGTAATCCGTATTTGGG (site AGCTCAACTCC)",
    "recombinant UMI read abundance (log10)": 0
  },
  {
    "seq_text": "GCATGCCCATGGACCGGTTTTCCCGGTAATCCGTATTTGAT (site GCCTGCCCTAT)",
    "recombinant UMI read abundance (log10)": 0.226
  },
  {
    "seq_text": "CACGCAGCATGGACCGGTTTTCCCGGTAATCCGTATTTGCT (site CACGCAGCTAG)",
    "recombinant UMI read abundance (log10)": 2.31
  },
  {
    "seq_text": "GTAGGTACATGGACCGGTTTTCCCGGTAATCCGTATTTGAA (site GTAGGTACTAT)",
    "recombinant UMI read abundance (log10)": 0
  },
  {
    "seq_text": "AGGAAGCCATGGACCGGTTTTCCCGGTAATCCGTATTTGCA (site AGGAAGGCTTG)",
    "recombinant UMI read abundance (log10)": 0
  },
  {
    "seq_text": "ATGCGTTCATGGACCGGTTTTCCCGGTAATCCGTATTTGAC (site ATGCGTTCTGT)",
    "recombinant UMI read abundance (log10)": 2.37
  },
  {
    "seq_text": "AGGACCACATGGACCGGTTTTCCCGGTAATCCGTATTTGAC (site AGGACTACTGT)",
    "recombinant UMI read abundance (log10)": 0
  },
  {
    "seq_text": "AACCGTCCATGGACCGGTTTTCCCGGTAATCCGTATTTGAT (site AACCGTTCTAT)",
    "recombinant UMI read abundance (log10)": 0.00303
  },
  {
    "seq_text": "TGACCGGCATGGACCGGTTTTCCCGGTAATCCGTATTTGGC (site TGACCGGCTGC)",
    "recombinant UMI read abundance (log10)": 1.25
  },
  {
    "seq_text": "AGTACAGCATGGACCGGTTTTCCCGGTAATCCGTATTTGCC (site AGTACAGCTGG)",
    "recombinant UMI read abundance (log10)": 2.27
  },
  {
    "seq_text": "TAATTAGCATGGACCGGTTTTCCCGGTAATCCGTATTTGGG (site TAATAAGCTCC)",
    "recombinant UMI read abundance (log10)": 0.00264
  },
  {
    "seq_text": "TCCTCCGCATGGACCGGTTTTCCCGGTAATCCGTATTTGCG (site TCCGCCGCTCG)",
    "recombinant UMI read abundance (log10)": 0
  },
  {
    "seq_text": "TCCACCGCATGGACCGGTTTTCCCGGTAATCCGTATTTGCG (site TCCAACGCTCG)",
    "recombinant UMI read abundance (log10)": 0
  },
  {
    "seq_text": "TCCAAGGCATGGACCGGTTTTCCCGGTAATCCGTATTTGTC (site TCCAAGGCTGA)",
    "recombinant UMI read abundance (log10)": 0
  },
  {
    "seq_text": "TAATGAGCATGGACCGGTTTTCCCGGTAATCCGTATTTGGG (site TAATGAACTCC)",
    "recombinant UMI read abundance (log10)": 0.0101
  }
]
